- Tested system: PD-1/PD-L1 interaction (PE-labeled human PD-L1-Ig binding to Jurkat cell line over-expressing human PD-1) (Homo sapiens, UniProt Q15116)
- Construct: expressed in transfected cells; host or cells: Jurkat
- Sequence (Q15116 25-288): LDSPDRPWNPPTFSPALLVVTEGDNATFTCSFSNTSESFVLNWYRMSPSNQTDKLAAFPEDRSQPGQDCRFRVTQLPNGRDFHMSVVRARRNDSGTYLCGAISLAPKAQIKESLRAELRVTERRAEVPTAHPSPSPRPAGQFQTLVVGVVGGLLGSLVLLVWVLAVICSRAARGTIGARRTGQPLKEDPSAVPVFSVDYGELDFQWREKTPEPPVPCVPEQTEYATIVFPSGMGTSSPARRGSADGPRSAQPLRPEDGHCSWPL
- Procedure text: Jurkat-PD-1 Cell Binding High-Content Screening Assay (CBA)
- Type: cell-based
- Test settings: Jurkat cell line over-expressing human PD-1; PE-labeled PD-L1-Ig 20 nM final; read-out: Jurkat hPD1-PDL1 IC50
Assay readout: IC50 (nM)
Report only the number, with the unit nM understood.

## Input Entry under review: CC[C@H](C)[C@@H]1NC(=O)[C@H](Cc2ccc(-c3ccccc3)cc2)NC(=O)[C@H](C(C)C)NC(=O)[C@H](Cc2cccc(C)c2)NC(=O)[C@H](CC(=O)O)NC(=O)[C@H](Cc2ccc(C(=O)O)cc2)NC(=O)[C@H](Cc2ccncc2)NC(=O)CSC[C@@H](C(=O)N[C@@H](Cc2cnc[nH]2)C(=O)NCCCCCCCCCCC(=O)O)NC(=O)[C@H]([C@@H](C)O)NC(=O)[C@H](C(C)C)NC(=O)[C@H](CC2CCCCC2)NC(=O)[C@H](CCN)NC(=O)[C@@H](CC(C)C)NC(=O)[C@H](CCCN)NC1=O . Reported IC50?
## Output 62.8

* * *

In this section, each of the compounds is paired with its reported IC50.
- Tested system: PD-1/PD-L1 interaction (PE-labeled human PD-L1-Ig binding to Jurkat cell line over-expressing human PD-1) (Homo sapiens)
- Construct: expressed in transfected cells; host or cells: Jurkat
- Procedure text: Jurkat-PD-1 Cell Binding High-Content Screening Assay (CBA)
- Type: cell-based
- Test settings: Jurkat cell line over-expressing human PD-1; PE-labeled PD-L1-Ig 20 nM final; read-out: Jurkat hPD1-PDL1 IC50
Report only the number, with the unit nM understood.

Test smiles	Assay readout	Endpoint result
CC[C@H](C)[C@@H]1NC(=O)[C@H](Cc2ccc(-c3ccccc3)cc2)NC(=O)[C@H](C(C)C)NC(=O)[C@H](Cc2cccc(C)c2)NC(=O)[C@H](CC(=O)O)NC(=O)[C@H](Cc2ccc(C(=O)O)cc2)NC(=O)[C@H](Cc2ccncc2)NC(=O)CSC[C@@H](C(=O)N[C@@H](C)C(=O)N[C@@H](CCC(=O)O)C(=O)NCCCCCCCCCCC(=O)O)NC(=O)[C@H]([C@@H](C)O)NC(=O)[C@H](C(C)C)NC(=O)[C@H](CC2CCCCC2)NC(=O)[C@H](CCN)NC(=O)[C@@H](CC(C)C)NC(=O)[C@H](CCCN)NC1=O	IC50	11.9

API: the following record is the query input.
## Input Entry under review: Cc1cccc(C[C@@H]2NC(=O)[C@H](CC(=O)O)NC(=O)[C@H](Cc3ccc(OCC(=O)O)cc3)NC(=O)[C@H](CN)NC(=O)CNC[C@@H](C(=O)N[C@@H](CCN)C(=O)NCCCCCCCCCCC(=O)O)NC(=O)[C@H]([C@@H](C)O)NC(=O)[C@H](C(C)C)NC(=O)[C@H](CC3CCCCC3)NC(=O)[C@H](CCN)NC(=O)[C@@H](CC(C)C)NC(=O)[C@H](CCCN)NC(=O)[C@H](CCCNC(N)=O)NC(=O)[C@H](Cc3ccc(-c4ccccc4)cc3)NC(=O)[C@H](C(C)C)NC2=O)c1 . Reported IC50?
## Output 42.6

* * *

- Tested system: PD-1/PD-L1 interaction (PE-labeled human PD-L1-Ig binding to Jurkat cell line over-expressing human PD-1) (Homo sapiens, UniProt Q15116)
- Construct: expressed in transfected cells; host or cells: Jurkat
- Procedure text: Jurkat-PD-1 Cell Binding High-Content Screening Assay (CBA)
- Assay type: cell-based
- Test settings: Jurkat cell line over-expressing human PD-1; PE-labeled PD-L1-Ig 20 nM final; read-out: Jurkat hPD1-PDL1 IC50
Assay readout: IC50 (µM)
Report only the number, with the unit µM understood.

In the examples that follow, each entry is paired with its recorded IC50.
Compound	Endpoint result
CC(C)C[C@H]1NC(=O)[C@H](CCCN)NC(=O)[C@H](C(C)C)NC(=O)[C@H](Cc2ccc(-c3ccccc3)cc2)NC(=O)[C@H](C(C)C)NC(=O)[C@H](Cc2c[nH]c3ccccc23)NC(=O)[C@H](CC(=O)O)NC(=O)[C@H](Cc2ccc(OCC(=O)O)cc2)NC(=O)[C@H](Cc2ccc(OCC(=O)O)cc2)NC(=O)CSC[C@@H](C(=O)NCCCCCCCCCCC(=O)O)NC(=O)[C@H](CCCNC(=N)N)NC(=O)[C@H](C(C)C)NC(=O)[C@H](CC2CCCCC2)NC(=O)[C@H](CCN)NC1=O [Compound 2602]	0.0184
CC[C@H](C)[C@@H]1NC(=O)[C@H](Cc2ccc(-c3ccccc3)cc2)NC(=O)[C@H](C(C)C)NC(=O)[C@H](Cc2cccc(C)c2)NC(=O)[C@H](CC(=O)O)NC(=O)[C@H](Cc2ccc(C(=O)O)cc2)NC(=O)[C@H](Cc2ccncc2)NC(=O)CSC[C@@H](C(=O)NCCOCCOCC(=O)NCCCCCCCCCCC(=O)O)NC(=O)[C@H]([C@@H](C)O)NC(=O)[C@H](C(C)C)NC(=O)[C@H](CC2CCCCC2)NC(=O)[C@H](CCN)NC(=O)[C@@H](CC(C)C)NC(=O)[C@H](CCCN)NC1=O [Compound 1182]	0.0437
CC[C@H](C)[C@@H]1NC(=O)[C@H](Cc2ccc(-c3ccccc3)cc2)NC(=O)[C@H](C(C)C)NC(=O)[C@H](Cc2cccc(C)c2)NC(=O)[C@H](CC(=O)O)NC(=O)[C@H](Cc2ccc(C(=O)O)cc2)NC(=O)[C@H](Cc2ccncc2)NC(=O)CSC[C@@H](C(=O)N[C@@H](C)C(=O)N[C@@H](CCC(=O)O)C(=O)NCC(=O)NCCCCCCCCCCC(=O)O)NC(=O)[C@H]([C@@H](C)O)NC(=O)[C@H](C(C)C)NC(=O)[C@H](CC2CCCCC2)NC(=O)[C@H](CCN)NC(=O)[C@@H](CC(C)C)NC(=O)[C@H](CCCN)NC1=O [Compound 1041]	0.0151
CC[C@H](C)[C@@H]1NC(=O)[C@H](Cc2ccc(-c3ccccc3)cc2)NC(=O)[C@H](C(C)C)NC(=O)[C@H](Cc2cccc(C)c2)NC(=O)[C@H](CC(=O)O)NC(=O)[C@H](Cc2ccc(C(=O)O)cc2)NC(=O)[C@H](Cc2ccncc2)NC(=O)CSC[C@@H](C(=O)N[C@@H](C)C(=O)N[C@@H](CC(=O)O)C(=O)NCC(=O)NCCCCCCCCCCC(=O)O)NC(=O)[C@H]([C@@H](C)O)NC(=O)[C@H](C(C)C)NC(=O)[C@H](CC2CCCCC2)NC(=O)[C@H](CCN)NC(=O)[C@@H](CC(C)C)NC(=O)[C@H](CCCN)NC1=O [Compound 1042]	0.0153
CCC(C)[C@@H]1NC(=O)[C@H](Cc2ccc(-c3ccccc3)cc2)NC(=O)[C@H](C(C)C)NC(=O)[C@H](Cc2cccc(C)c2)NC(=O)[C@H](CC(=O)O)NC(=O)[C@H](Cc2ccc(OCC(=O)O)cc2)NC(=O)[C@H](C(C)O)NC(=O)CSC[C@@H](C(=O)N[C@H](CCN)C(=O)NCCCCCCCCCCC(=O)O)NC(=O)[C@H](C(C)O)NC(=O)[C@H](C(C)C)NC(=O)[C@H](CC2CCCCC2)NC(=O)[C@H](CCN)NC(=O)[C@@H](CC(C)C)NC(=O)[C@H](CCCN)NC1=O (some centres unmarked) [Compound 3091]	0.0269
Cc1cccc(C[C@@H]2NC(=O)[C@H](CC(=O)O)NC(=O)[C@H](Cc3ccc(OCC(=O)O)cc3)NC(=O)[C@H](CCCNC(=N)N)NC(=O)CN(C)C[C@@H](C(=O)N[C@@H](CCN)C(=O)NCCCCCCCCCCC(=O)O)NC(=O)[C@H]([C@@H](C)O)NC(=O)[C@H](C(C)C)NC(=O)[C@H](CC3CCCCC3)NC(=O)[C@H](CCN)NC(=O)[C@@H](CC(C)C)NC(=O)[C@H](CCCN)NC(=O)[C@H](Cc3ccc(OCC(=O)O)cc3)NC(=O)[C@H](Cc3ccc(-c4ccccc4)cc3)NC(=O)[C@H](Cc3ccc(OCC(=O)O)cc3)NC2=O)c1 [Compound 2159]	0.0961
Cc1cccc(C[C@@H]2NC(=O)[C@H](CC(=O)O)NC(=O)[C@H](Cc3ccc(OCC(=O)O)cc3)NC(=O)[C@H](CN)NC(=O)CSC[C@@H](C(=O)N[C@@H](C)CC(=O)NCCCCCCCCCCC(=O)O)NC(=O)[C@H]([C@@H](C)O)NC(=O)[C@H](C(C)C)NC(=O)[C@H](CC3CCCCC3)NC(=O)[C@H](CCN)NC(=O)[C@@H](CC(C)C)NC(=O)[C@H](CCCN)NC(=O)[C@H](CCCNC(N)=O)NC(=O)[C@H](Cc3ccc(-c4ccccc4)cc3)NC(=O)[C@H](C(C)C)NC2=O)c1 [Compound 2619]	0.0244

API: the following record is the query input.
## Input Entry under review: CC[C@H](C)[C@@H]1NC(=O)[C@H](Cc2ccc(-c3ccccc3)cc2)NC(=O)[C@H](C(C)C)NC(=O)[C@H](Cc2cccc(C)c2)NC(=O)[C@H](CC(=O)O)NC(=O)[C@H](Cc2ccc(C(=O)O)cc2)NC(=O)[C@H](Cc2ccncc2)NC(=O)CSC[C@@H](C(=O)N[C@@H](CCCCN)C(=O)NCCCCCCCCCCC(=O)O)NC(=O)[C@H]([C@@H](C)O)NC(=O)[C@H](C(C)C)NC(=O)[C@H](CC2CCCCC2)NC(=O)[C@H](CCN)NC(=O)[C@@H](CC(C)C)NC(=O)[C@H](CCCN)NC1=O [Compound 1185] . Reported IC50?
## Output 0.0442
